target: Nuclear receptor subfamily 1 group I member 2 (Homo sapiens) (UniProt O75469); assay: human PXR activators, counter-screen for AHR activator project, cell-based, luciferase luminescence (AID 434939); settings: cell-based PXR reporter, at 11.6 µM, active compounds read high;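 further: human hepatoma DPX-2 cells expressing full-length human PXR; 0% = DMSO and 100% = reference agonist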
Sequence (O75469 whole entry, looked up): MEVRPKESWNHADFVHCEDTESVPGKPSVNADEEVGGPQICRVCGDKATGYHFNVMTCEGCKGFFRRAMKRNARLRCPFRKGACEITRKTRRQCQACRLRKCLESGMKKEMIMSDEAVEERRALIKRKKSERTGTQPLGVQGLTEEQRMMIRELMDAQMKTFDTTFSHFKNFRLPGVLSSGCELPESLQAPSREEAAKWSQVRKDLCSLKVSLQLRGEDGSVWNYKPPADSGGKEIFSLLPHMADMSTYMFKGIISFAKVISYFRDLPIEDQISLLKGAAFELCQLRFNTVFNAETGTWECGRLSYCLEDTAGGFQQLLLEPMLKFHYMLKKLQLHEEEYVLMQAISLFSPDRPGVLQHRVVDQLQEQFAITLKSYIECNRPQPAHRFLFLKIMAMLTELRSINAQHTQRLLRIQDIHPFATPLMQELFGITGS
Among all 2,300 compounds or so, about 2,000 (87%) were called active. The set was probably picked from earlier hits. Not all results are given here.
RESULT_TYPE: activation

- MOLECULE: "COc1ccc(C2NC(=O)c3ccccc3N2)cc1 (configuration not stated)"
  activation: "6.29% (inactive)"

Q: Query (molecule): O=C(Nc1ccc(C2CC2(Cl)Cl)cc1)c1cccc([N+](=O)[O-])c1 (configuration not stated) ; field requested: activation
A: 19.2% (active)

Q: Query (molecule): NC(=O)Nc1ccccc1C(=O)NCCc1ccccc1 ; field requested: activation
A: 18.7% (active)

Q: Query (molecule): CCOc1ccccc1NC(=O)c1cccnc1 ; field requested: activation
A: 24.9% (active)
